# System: glioblastoma (U251)
# assay-protocol: MTT cytotoxicity assay, U251
# Type: cell-based, human
parameter-measured: IC50

Challenge: Determine its reported IC50: O=C1c2cccc[n+]2[Pd-2]2([Cl])[S+]=P(c3ccccc3)(c3ccccc3)C(c3ccccc3)[N]12 (racemic) [Ia]
Response given: 34 µM

Challenge: Determine its reported IC50: O=C1c2cc(Cl)cc[n+]2[Pd-2]2([Cl])[S+]=P(c3ccccc3)(c3ccccc3)C(c3ccccc3)[N]12 (racemic) [Compound 9, [κ^3-S,N,N-(L)Pd(II)Cl] complex]
Response given: 9 µM

---

# System: ovarian adenocarcinoma (Scov3)
# assay-protocol: MTT cytotoxicity assay, Scov3
# Assay type: cell-based, human
parameter-measured: pIC50
// pIC50 is dimensionless: -log10 of concentration (M)

compound	pIC50
O=C1c2cccc[n+]2[Pd-2]2([Cl])[S+]=P(c3ccccc3)(c3ccccc3)C(c3ccccc3)[N]12 (racemic) [Ia]	4.52

--- query ---
Challenge: Determine its reported pIC50: O=C1c2cc(Cl)cc[n+]2[Pd-2]2([Cl])[S+]=P(c3ccccc3)(c3ccccc3)C(c3ccccc3)[N]12 (racemic) [Compound 9, [κ^3-S,N,N-(L)Pd(II)Cl] complex]
Response given: 5.10

Just for reference, paper PMC12111564 is where these values come from.
